- System: HeLa
- assayOverview: Antiproliferative activity against human HeLa cells assessed as reduction in net protein increase after 48 hrs by SRB assay
- Type: functional
assayMetric: GI50 (µM)

Field: example entries. Status: answers known.
Please report the recorded GI50 for COc1cccc2c1C(=O)c1c(O)c3c(c(O)c1C2=O)C[C@@](O)(C(=O)CO)C[C@@H]3O[C@H]1C[C@H](N)[C@H](O)[C@H](C)O1 .
0.073

Please report the recorded GI50 for O=C1COc2ccccc2N1CCCn1cc(C2(O)CCCCC2)nn1 .
2

Please report the recorded GI50 for O=C1COc2ccccc2N1CCCn1cc(CCCCl)nn1 .
0.1

Please report the recorded GI50 for O=C1COc2ccccc2N1CCCn1cc(CO)nn1 .
7.3

Please report the recorded GI50 for COc1ccc(-c2cn(CCCN3C(=O)COc4ccccc43)nn2)cc1 .
4.9

A = CCCCCCc1cn(CCCN2C(=O)COc3ccccc32)nn1
B = CC(=O)O[C@H]1C(=O)[C@@]2(C)[C@H]([C@H](OC(=O)c3ccccc3)[C@]3(O)C[C@H](OC(=O)[C@H](O)[C@@H](NC(=O)c4ccccc4)c4ccccc4)C(C)=C1C3(C)C)[C@]1(OC(C)=O)CO[C@@H]1C[C@@H]2O
Please choose the item with the lower GI50 value from this pair: A and B Returns: label corresponding to the selected item.
B

A = O=C1COc2ccccc2N1CCCn1cc(-c2ccccc2)nn1
B = Cc1ccc(-c2cn(CCCN3C(=O)COc4ccccc43)nn2)cc1
Pick the one with the larger GI50: A vs B Returns: label corresponding to the selected item.
B
(B: 14.3 µM, A: 9 µM)

P = O=C1COc2ccccc2N1CCCn1cc(-c2ccccn2)nn1
Q = CCCCc1cn(CCCN2C(=O)COc3ccccc32)nn1
Pick the one with the larger GI50: P vs Q Returns: label corresponding to the selected item.
P
(P: 10 µM, Q: 1.02 µM)
